tested on: A549 lung cell carcinoma; assay: Relative colony forming efficiency after antisense treatment (Table 13); type: cell-based, human; conditions: 0.2 μM antisense oligodeoxyribonucleotide phosphorothioate; A549 cells; averages of 2-8 determinations
Strand notation (5' to 3'): a small letter for the sugar, then the base; units joined by * are phosphorothioate-linked, units joined directly phosphodiester-linked; [ ] holds rarer units or linkages, { } end groups; capitals alone tell only the bases. d = 2'-deoxy (DNA)
measurement_type: Reduced relative colony forming efficiency, expressed as % inhibition, A549 (%)
Use % as the unit, but write only the number.

# Reduced relative colony forming efficiency, expressed as % inhibition, A549 lookup, item TCCTCGGCGGTCCAAA (dT*dC*dC*dT*dC*dG*dG*dC*dG*dG*dT*dC*dC*dA*dA*dA) [AS-II-496-16] 74.45

// same read-out, input: ATCCAGCGCAAGGCCCAGTC (antisense; DNA, all phosphorothioate, methylation of C not given here) [AS-II-816-20] 78.4

# repeat for GAAGCCATAGAAACAGCGGG (antisense; DNA, all phosphorothioate, methylation of C not given here) [AS-II-667-20] 70.3
